Attribution: patent US20230295197A1

target: STAT6 (Homo sapiens, UniProt P42226); construct: endogenous in cells; host or cells: MOLM-16, KU-812, SKNO1, MB231, L1236; experiment: Immunoblotting (Western blot) analysis of STAT6 degradation efficiency of degraders in treated cells; assay type: cell-based; details: MOLM-16 cells, class symbols, read-out: DC50 S6 MOLM-16
Sequence (P42226 whole entry): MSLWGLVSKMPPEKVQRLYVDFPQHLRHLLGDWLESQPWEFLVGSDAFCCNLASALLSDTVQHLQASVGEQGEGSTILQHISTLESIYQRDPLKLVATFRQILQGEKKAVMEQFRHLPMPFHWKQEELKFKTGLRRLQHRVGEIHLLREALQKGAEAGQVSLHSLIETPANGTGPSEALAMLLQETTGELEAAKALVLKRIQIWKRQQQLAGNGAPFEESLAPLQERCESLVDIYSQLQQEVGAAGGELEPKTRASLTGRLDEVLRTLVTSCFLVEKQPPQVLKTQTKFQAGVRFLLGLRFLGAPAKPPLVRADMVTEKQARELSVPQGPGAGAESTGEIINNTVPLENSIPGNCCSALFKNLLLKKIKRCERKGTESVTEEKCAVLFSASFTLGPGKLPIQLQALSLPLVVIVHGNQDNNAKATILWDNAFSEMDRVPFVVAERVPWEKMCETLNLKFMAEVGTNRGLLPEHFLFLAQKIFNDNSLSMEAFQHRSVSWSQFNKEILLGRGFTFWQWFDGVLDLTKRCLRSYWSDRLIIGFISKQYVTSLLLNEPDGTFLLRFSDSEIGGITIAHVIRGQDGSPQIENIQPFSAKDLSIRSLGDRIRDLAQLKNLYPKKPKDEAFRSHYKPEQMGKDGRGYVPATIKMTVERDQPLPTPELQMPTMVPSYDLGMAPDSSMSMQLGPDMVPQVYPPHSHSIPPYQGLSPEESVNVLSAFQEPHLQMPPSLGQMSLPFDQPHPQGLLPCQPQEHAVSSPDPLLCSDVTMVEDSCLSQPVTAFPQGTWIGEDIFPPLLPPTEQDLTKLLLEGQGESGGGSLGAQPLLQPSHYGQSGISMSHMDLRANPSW
Measured DC50 values are reported for all entries that follow.

# compound, DC50
rows = [
    ("CC(C)(C)[C@H](NC(=O)c1cc2cc(C(F)(F)P(=O)(O)O)ccc2s1)C(=O)N1CCC[C@H]1C(=O)N(CCC(=O)NCCCCCC#Cc1cccc2c1CN(C1CCC(=O)NC1=O)C2=O)c1ccc(Br)cc1 (some centres unmarked)", "> 10 µM"),
]

We next turn to a different compound, shown below.
Sure, the documented DC50 for CC(C)(C)[C@H](NC(=O)c1cc2cc(C(F)(F)P(=O)(O)O)ccc2s1)C(=O)N1C[C@@H](OCC(=O)NCCCCCCCCC#Cc2cccc3c2C(=O)N(C2CCC(=O)NC2=O)C3=O)C[C@H]1C(=O)N1CCO[C@H](c2ccccc2)C1 (some centres unmarked) is > 10 µM

* * *

test system: STAT5; experiment: Immunoblotting (Western blot) analysis of STAT5 degradation efficiency of degraders in treated cells; assay type: cell-based; settings: KU-812 cells, read-out: DC50 S5 KU-812
Each entry below carries its reported DC50.

Before answering, review these 6 worked examples.
# molecule, DC50
records = [
    ("CC(C)(C)[C@H](NC(=O)c1cc2cc(C(F)(F)P(=O)(O)O)ccc2s1)C(=O)N1CCC[C@H]1C(=O)N(CCC(=O)NCCCC#Cc1cccc2c1CN(C1CCC(=O)NC1=O)C2=O)c1ccc2occc2c1 (stereo partly drawn)", "100 to 1000 nM"),
    ("CN(CCCC#Cc1cccc2c1CN(C1CCC(=O)NC1=O)C2=O)C(=O)CCN(C(=O)[C@@H]1CCCN1C(=O)[C@@H](NC(=O)c1cc2cc(C(F)(F)P(=O)(O)O)ccc2s1)C(C)(C)C)c1ccc2ccccc2c1 (stereo partly drawn)", "100 to 1000 nM"),
    ("CN(CCCC#Cc1cccc2c1CN(C1CCC(=O)NC1=O)C2=O)C(=O)CCN(C(=O)[C@@H]1CCCN1C(=O)[C@@H](NC(=O)c1cc2cc(C(F)(F)P(=O)(O)O)ccc2s1)C(C)(C)C)c1ccc2sccc2c1 (stereo partly drawn)", "100 to 1000 nM"),
    ("CN(CCCC#Cc1cccc2c1CN(C1CCC(=O)NC1=O)C2=O)C(=O)CCN(C(=O)[C@@H]1CCCN1C(=O)[C@@H](NC(=O)c1cc2cc(C(F)(F)P(=O)(O)O)ccc2s1)C(C)(C)C)c1ccc(Br)cc1 (stereo partly drawn)", "100 to 1000 nM"),
    ("CC(C)(C)[C@H](NC(=O)c1cc2cc(C(F)(F)P(=O)(O)O)ccc2s1)C(=O)N1CCC[C@H]1C(=O)N(CCC(=O)NCCCC#Cc1cccc2c1CN(C1CCC(=O)NC1=O)C2=O)c1ccc(-c2cccs2)cc1 (stereo partly drawn)", "100 to 1000 nM"),
    ("CN(CCCC#Cc1cccc2c1CN(C1CCC(=O)NC1=O)C2=O)C(=O)CCN(C(=O)[C@@H]1CCCN1C(=O)[C@H](CCc1ccccc1)NC(=O)c1cc2cc(C(F)(F)P(=O)(O)O)ccc2s1)c1ccc(-c2nccs2)cc1 (stereo partly drawn)", "100 to 1000 nM"),
]

// CC(C)(C)[C@H](NC(=O)c1cc2cc(C(F)(F)P(=O)(O)O)ccc2s1)C(=O)N1CCC[C@H]1C(=O)N(CCC(=O)NCCCC#Cc1cccc2c1CN(C1CCC(=O)NC1=O)C2=O)c1ccc2ncsc2c1 (stereo partly drawn) : DC50 value = > 10000 nM

So for CC(C)(C)[C@H](NC(=O)c1cc2cc(C(F)(F)P(=O)(O)O)ccc2s1)C(=O)N1CCC[C@H]1C(=O)N(CCC(=O)NCCCCCCCCC#Cc1cccc2c1CN(C1CCC(=O)NC1=O)C2=O)c1ccc(Br)cc1 (stereo partly drawn) , the logged DC50 turned out to be > 10000 nM

Record summary for CC(C)(C)[C@H](NC(=O)c1cc2cc(C(F)(F)P(=O)(O)O)ccc2s1)C(=O)N1CCC[C@H]1C(=O)N(CCC(=O)NCCCC#Cc1cccc2c1CN(C1CCC(=O)NC1=O)C2=O)c1ccc(Br)cc1 (stereo partly drawn) : reported DC50 = 100 to 1000 nM
